Tested on: 695427-040-R-J1-PDC complex spheroids, viability percent T/C
protocolDescription: Anticancer human tumor 695427-040-R-J1-PDC patient-derived colon adenocarcinoma cell line growth inhibition [GQUAD]
appliedConditions: second compound 0.1 µM; first compound 0.316 µM; stronger effect = lower value
Excerpt: DNA G-quadruplex Stabilizer Agents in Combinations in Complex Spheroids A high-throughput screen of multi-cell type tumor spheroids was designed to identify active combinations of DNA G-quadruplex stabilizer agents and targeted small molecules. […] Compounds. […] If the clinical Cmax for an agent had not been determined, the highest concentration tested was 10 microM. […]
parameterMeasured: viability, T/C (%)
Answer format: numeric, % implied, no suffix.

# molecule, readoutUnit, viability, T/C
records = [
    ("C#Cc1c(F)ccc2cc(O)cc(-c3ncc4c(N5CC6CCC(C5)N6)nc(OCC56CCCN5CC(F)C6)nc4c3F)c12 (centres undefined) + CN(C)c1ccc(Nc2c3ccc(NC(=O)CCN4CCCC4)cc3nc3cc(NC(=O)CCN4CCCC4)ccc23)cc1", "%", 98),
]

Any idea what its viability, T/C is? The molecule is CC1COCCN1c1cc(-c2ccnn2C)c2ccnc(-c3ccn[nH]3)c2n1 (centres undefined) + Cc1[nH]c2ccc(F)cc2c1-c1nc2c3cccnc3c3ncccc3c2[nH]1
53.3

Continue with COc1ncnc(C2CC2)c1-c1ncc2cnn(Cc3ccc(-c4nc(C(F)(F)F)cn4C(C)C)cc3)c2n1 + Cc1cnc(CNC(=O)c2c(=O)c3ccc(N4CCCN(C)CC4)nc3n3c2sc2ccccc23)cn1
71.9

Continue with CCCS(=O)(=O)Nc1ccc(F)c(C(=O)c2c[nH]c3ncc(-c4ccc(Cl)cc4)cc23)c1F + Cc1cnc(CNC(=O)c2c(=O)c3ccc(N4CCCN(C)CC4)nc3n3c2sc2ccccc23)cn1
78.9

====

Test system: 695427-040-R-J1-PDC complex spheroids, viability percent T/C
protocolDescription: Anticancer human tumor 695427-040-R-J1-PDC cell line growth inhibition [GQUAD];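 also: spheroids exposed to compounds for seven days before readout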
appliedConditions: second compound 0.1 µM; first compound 3.16 µM; stronger effect = lower value
Measured viability, T/C of individual entries
Answer format: numeric, % implied, no suffix.

# compound, readoutUnit, viability, T/C
measured = [
    ("Nc1ccn(C2OC(CO)C(O)C2(F)F)c(=O)n1 (centres undefined) + CN(C)c1ccc(Nc2c3ccc(NC(=O)CCN4CCCC4)cc3nc3cc(NC(=O)CCN4CCCC4)ccc23)cc1", "%", 69.7),
    ("C=CC(=O)N1CCN(c2nc(=O)n(-c3c(C)ccnc3C(C)C)c3nc(-c4c(O)cccc4F)c(F)cc23)C(C)C1 (centres undefined) + Cc1[nH]c2ccc(F)cc2c1-c1nc2c3cccnc3c3ncccc3c2[nH]1", "%", 104),
    ("CC1COCCN1c1cc(-c2ccnn2C)c2ccnc(-c3ccn[nH]3)c2n1 (centres undefined) + Cc1[nH]c2ccc(F)cc2c1-c1nc2c3cccnc3c3ncccc3c2[nH]1", "%", 34.9),
    ("CC(C)n1c(=O)n(C)c2cnc3cc(F)c(-c4ccc(OCCCN5CCCCC5)nc4)cc3c21 + Cc1[nH]c2ccc(F)cc2c1-c1nc2c3cccnc3c3ncccc3c2[nH]1", "%", 94.3),
    ("Cc1cccc(N(C)C(=O)C2C(O)CCN2c2nc(C)cc(C(F)(F)F)c2C#N)c1 (centres undefined) + CN(C)c1ccc(Nc2c3ccc(NC(=O)CCN4CCCC4)cc3nc3cc(NC(=O)CCN4CCCC4)ccc23)cc1", "%", 101),
]

Any idea what its viability, T/C is? The compound is COc1cc(C2c3cc4c(cc3C(OC3OC5COC(C)OC5C(O)C3O)C3COC(=O)C23)OCO4)cc(OC)c1O (centres undefined) + CN(C)c1ccc(Nc2c3ccc(NC(=O)CCN4CCCC4)cc3nc3cc(NC(=O)CCN4CCCC4)ccc23)cc1
89.8

Continue with COc1cccc2c1C(=O)c1c(O)c3c(c(O)c1C2=O)CC(O)(C(=O)CO)CC3OC1CC(N)C(O)C(C)O1 (centres undefined) + Cc1cnc(CNC(=O)c2c(=O)c3ccc(N4CCCN(C)CC4)nc3n3c2sc2ccccc23)cn1
45

Continue with C#Cc1c(F)ccc2cc(O)cc(-c3ncc4c(N5CC6CCC(C5)N6)nc(OCC56CCCN5CC(F)C6)nc4c3F)c12 (centres undefined) + Cc1cnc(CNC(=O)c2c(=O)c3ccc(N4CCCN(C)CC4)nc3n3c2sc2ccccc23)cn1
71.4

Continue with COc1ccc([C@@H](O)c2cc(-c3ncnc4cc(N5CCOCC5)ccc34)c(F)cc2Cl)nn1 + CN(C)c1ccc(Nc2c3ccc(NC(=O)CCN4CCCC4)cc3nc3cc(NC(=O)CCN4CCCC4)ccc23)cc1
72.9

Continue with Nc1ccn(C2OC(CO)C(O)C2(F)F)c(=O)n1 (centres undefined) + Cc1cnc(CNC(=O)c2c(=O)c3ccc(N4CCCN(C)CC4)nc3n3c2sc2ccccc23)cn1
56.4

Continue with CC1COCCN1c1cc(C2(O)CC3CCC(C2)O3)c2cnn(-c3ccn[nH]3)c2n1 (centres undefined) + Cc1[nH]c2ccc(F)cc2c1-c1nc2c3cccnc3c3ncccc3c2[nH]1
37.6

Continue with CC1COCCN1c1cc(C2(O)CC3CCC(C2)O3)c2cnn(-c3ccn[nH]3)c2n1 (centres undefined) + Cc1cnc(CNC(=O)c2c(=O)c3ccc(N4CCCN(C)CC4)nc3n3c2sc2ccccc23)cn1
30.3

Continue with Cc1cccc(N(C)C(=O)C2C(O)CCN2c2nc(C)cc(C(F)(F)F)c2C#N)c1 (centres undefined) + Cc1cnc(CNC(=O)c2c(=O)c3ccc(N4CCCN(C)CC4)nc3n3c2sc2ccccc23)cn1
87.9

Continue with COc1cc(C2c3cc4c(cc3C(OC3OC5COC(C)OC5C(O)C3O)C3COC(=O)C23)OCO4)cc(OC)c1O (centres undefined) + Cc1cnc(CNC(=O)c2c(=O)c3ccc(N4CCCN(C)CC4)nc3n3c2sc2ccccc23)cn1
75.5
